SUBJECT OF TEST: UniProtKB P30411
Square brackets hold non-standard residues; d marks the D form. Peptide text beside a SMILES is read from it. * marks the point of attachment. X21 = CN1CC[C@]23c4c5ccc(OCCCCCCCCCCCC(=O)*)c4O[C@H]2[C@@H](O)CC[C@H]3[C@H]1C5; Hyp = O=C(O)[C@@H]1C[C@@H](O)CN1; dTic = O=C(O)[C@H]1Cc2ccccc2CN1; 2Thi = N[C@@H](Cc1cccs1)C(=O)O; Gly(N-cHex) = O=C(O)CNC1CCCCC1
Provide the reported log10(IC50) of each item.
For clarity, the numbers are log10 values of IC50 expressed in nM.

GET /values?readout=log10(IC50)&item= CN1CC[C@]23c4c5ccc(OCCCCCCCCCCCC(=O)NCCCC[C@H](NC(=O)[C@H](CCCNC(=N)N)NC(=O)[C@H](N)CCCNC(=N)N)C(=O)N6C[C@H](O)C[C@H]6C(=O)NCC(=O)N[C@@H](Cc6cccs6)C(=O)N[C@@H](CO)C(=O)N6Cc7ccccc7C[C@@H]6C(=O)N(CC(=O)N[C@@H](CCCNC(=N)N)C(=O)O)C6CCCCC6)c4O[C@H]2[C@@H](O)CC[C@H]3[C@H]1C5 [CP 851] (H-[dR]RK(X21)[Hyp]G[2Thi]S[dTic][Gly(N-cHex)]R-OH)
1.60

GET /values?readout=log10(IC50)&item= CN1CC[C@]23c4c5ccc(O)c4O[C@H]2[C@@H](OCc2ccc(C(=O)N[C@H](CCCNC(=N)N)C(=O)N[C@@H](CCCNC(=N)N)C(=O)N4CCC[C@H]4C(=O)N4C[C@H](O)C[C@H]4C(=O)NCC(=O)N[C@@H](Cc4cccs4)C(=O)N[C@@H](CO)C(=O)N4Cc6ccccc6C[C@@H]4C(=O)N(CC(=O)N[C@@H](CCCNC(=N)N)C(=O)O)C4CCCCC4)cc2)C=C[C@H]3[C@H]1C5 [CP 906]
-0.30

GET /values?readout=log10(IC50)&item= CN1CC[C@]23c4c5ccc(O)c4O[C@H]2[C@@H](OCCCCCCCCCCCC(=O)N[C@H](CCCNC(=N)N)C(=O)N[C@@H](CCCNC(=N)N)C(=O)N2CCC[C@H]2C(=O)N2C[C@H](O)C[C@H]2C(=O)NCC(=O)N[C@@H](Cc2cccs2)C(=O)N[C@@H](CO)C(=O)N2Cc4ccccc4C[C@@H]2C(=O)N(CC(=O)N[C@@H](CCCNC(=N)N)C(=O)O)C2CCCCC2)CC[C@H]3[C@H]1C5 [CP 896]
0.30

GET /values?readout=log10(IC50)&item= CN1CC[C@]23c4c5ccc(OCCCCCCCCCCCC(=O)NCCCC[C@H](NC(=O)[C@@H]6CCCN6C(=O)[C@H](CCCNC(=N)N)NC(=O)[C@H](N)CCCNC(=N)N)C(=O)NCC(=O)N[C@@H](Cc6cccs6)C(=O)N[C@@H](CO)C(=O)N6Cc7ccccc7C[C@@H]6C(=O)N(CC(=O)N[C@@H](CCCNC(=N)N)C(=O)O)C6CCCCC6)c4O[C@H]2[C@@H](O)CC[C@H]3[C@H]1C5 [CP 841] (H-[dR]RPK(X21)G[2Thi]S[dTic][Gly(N-cHex)]R-OH)
1.10

GET /values?readout=log10(IC50)&item= CN1CC[C@]23c4c5ccc(OCCCCCCCCCCCCCCC(=O)N[C@H](CCCNC(=N)N)C(=O)N[C@@H](CCCNC(=N)N)C(=O)N6CCC[C@H]6C(=O)N6C[C@H](O)C[C@H]6C(=O)NCC(=O)N[C@@H](Cc6cccs6)C(=O)N[C@@H](CO)C(=O)N6Cc7ccccc7C[C@@H]6C(=O)N(CC(=O)N[C@@H](CCCNC(=N)N)C(=O)O)C6CCCCC6)c4O[C@H]2[C@@H](O)CC[C@H]3[C@H]1C5 [CP 844]
0.50

====

Square brackets hold non-standard residues; d marks the D form. Peptide text beside a SMILES is read from it. * marks the point of attachment. X21 = CN1CC[C@]23c4c5ccc(OCCCCCCCCCCCC(=O)*)c4O[C@H]2[C@@H](O)CC[C@H]3[C@H]1C5; Hyp = O=C(O)[C@@H]1C[C@@H](O)CN1; dTic = O=C(O)[C@H]1Cc2ccccc2CN1; 2Thi = N[C@@H](Cc1cccs1)C(=O)O; Gly(N-cHex) = O=C(O)CNC1CCCCC1
// values below are IC50; system is human BK2 receptor (Homo sapiens, UniProt P30411)
Sequence (P30411 28-391): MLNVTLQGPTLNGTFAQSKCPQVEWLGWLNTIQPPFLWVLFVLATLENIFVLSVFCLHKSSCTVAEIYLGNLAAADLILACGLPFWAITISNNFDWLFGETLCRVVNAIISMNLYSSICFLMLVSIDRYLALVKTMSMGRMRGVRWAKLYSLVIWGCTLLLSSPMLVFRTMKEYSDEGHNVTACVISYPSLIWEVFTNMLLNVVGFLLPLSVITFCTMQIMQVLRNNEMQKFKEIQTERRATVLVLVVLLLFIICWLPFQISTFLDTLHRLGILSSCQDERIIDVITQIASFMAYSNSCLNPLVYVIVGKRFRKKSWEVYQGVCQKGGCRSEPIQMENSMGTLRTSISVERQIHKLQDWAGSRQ
I only need the number, in nM, no unit after it.

GET /values?readout=IC50&item= `CN1CC[C@]23c4c5ccc(O)c4O[C@H]2[C@@H](OCCCc2cccc(C(=O)N[C@H](CCCNC(=N)N)C(=O)N[C@@H](CCCNC(=N)N)C(=O)N4CCC[C@H]4C(=O)N4C[C@H](O)C[C@H]4C(=O)NCC(=O)N[C@@H](Cc4cccs4)C(=O)N[C@@H](CO)C(=O)N4Cc6ccccc6C[C@@H]4C(=O)N(CC(=O)N[C@@H](CCCNC(=N)N)C(=O)O)C4CCCCC4)c2)C=C[C@H]3[C@H]1C5`
0.398

GET /values?readout=IC50&item= CN1CC[C@]23c4c5ccc(OCCCCCCCCCCCC(=O)NCCCC[C@H](NC(=O)[C@H](N)CCCNC(=N)N)C(=O)N6CCC[C@H]6C(=O)N6C[C@H](O)C[C@H]6C(=O)NCC(=O)N[C@@H](Cc6cccs6)C(=O)N[C@@H](CO)C(=O)N6Cc7ccccc7C[C@@H]6C(=O)N(CC(=O)N[C@@H](CCCNC(=N)N)C(=O)O)C6CCCCC6)c4O[C@H]2[C@@H](O)CC[C@H]3[C@H]1C5 [CP 723] (H-[dR]K(X21)P[Hyp]G[2Thi]S[dTic][Gly(N-cHex)]R-OH)
0.398

GET /values?readout=IC50&item= `CN1CC[C@]23c4c5ccc(OCCCCCCCCCCCC(=O)N[C@H](CCCNC(=N)N)C(=O)N[C@@H](CCCNC(=N)N)C(=O)N6CCC[C@H]6C(=O)N6C[C@H](O)C[C@H]6C(=O)NCC(=O)N[C@@H](Cc6cccs6)C(=O)N[C@@H](CO)C(=O)N6Cc7ccccc7C[C@@H]6C(=O)N(CC(=O)N[C@@H](CCCNC(=N)N)C(=O)O)C6CCCCC6)c4O[C@H]2[C@@H](O)CC[C@H]3[C@H]1C5`
1.26

GET /values?readout=IC50&item= CN1CC[C@]23c4c5ccc(OCCCCCCCCCCCC(=O)NCCCC[C@H](NC(=O)CNC(=O)[C@@H]6C[C@@H](O)CN6C(=O)[C@@H]6CCCN6C(=O)[C@H](CCCNC(=N)N)NC(=O)[C@H](N)CCCNC(=N)N)C(=O)N[C@@H](CO)C(=O)N6Cc7ccccc7C[C@@H]6C(=O)N(CC(=O)N[C@@H](CCCNC(=N)N)C(=O)O)C6CCCCC6)c4O[C@H]2[C@@H](O)CC[C@H]3[C@H]1C5 [CP 831] (H-[dR]RP[Hyp]GK(X21)S[dTic][Gly(N-cHex)]R-OH)
126

GET /values?readout=IC50&item= `CN1CC[C@]23c4c5ccc(O)c4O[C@H]2[C@@H](OCCCCCC(=O)N[C@H](CCCNC(=N)N)C(=O)N[C@@H](CCCNC(=N)N)C(=O)N2CCC[C@H]2C(=O)N2C[C@H](O)C[C@H]2C(=O)NCC(=O)N[C@@H](Cc2cccs2)C(=O)N[C@@H](CO)C(=O)N2Cc4ccccc4C[C@@H]2C(=O)N(CC(=O)N[C@@H](CCCNC(=N)N)C(=O)O)C2CCCCC2)CC[C@H]3[C@H]1C5`
1.58
